Reported pIC50 is given for each of the following binders.
- target.entity: T1, rh integrin α4β7 (R&D Systems #5397-A30) (human, UniProt P13612 34-970; P26010 20-723)
- T1 construct: bought; coated on a nickel coated plate; also called immobilized α4β7; immobilized α4β7 integrin protein
- experiment.notes: competition ELISA vs MAdCAM-1
pIC50: −log10 of the molar value. Bridge positions count the residues as written; N and C are the ends. Square brackets hold non-standard residues; d marks the D form. Phe(4-COOH) = N[C@@H](Cc1ccc(C(=O)O)cc1)C(=O)O; Phe(4-tBu) = CC(C)(C)c1ccc(C[C@H](N)C(=O)O)cc1; NMeR = CN[C@@H](CCCNC(=N)N)C(=O)O; Tic = O=C(O)[C@@H]1Cc2ccccc2CN1; β3hE = N[C@@H](CCC(=O)O)CC(=O)O; NMeK = CN[C@@H](CCCCN)C(=O)O; Pen = CC(C)(S)[C@H](N)C(=O)O; βAla = NCCC(=O)O

binder	pIC50
H-[βAla][Pen][NMeR]SDTL[Pen]W[dE]-NH2 (disulfide 2-8; SMILES CC(C)C[C@@H]1NC(=O)[C@H]([C@@H](C)O)NC(=O)[C@H](CC(=O)O)NC(=O)[C@H](CO)NC(=O)[C@H](CCCNC(=N)N)N(C)C(=O)[C@@H](NC(=O)CCN)C(C)(C)SSC(C)(C)[C@@H](C(=O)N[C@@H](Cc2c[nH]c3ccccc23)C(=O)N[C@H](CCC(=O)O)C(N)=O)NC1=O) [SEQ ID NO: 53]	< 8.00
Ac-[Pen][NMeR]SDTL[Pen][Phe(4-tBu)]E[NMeK]-NH2 (disulfide 1-7; not fully specified (residue 10); printed as (Ac Pen N-Me-R S D T L Pen F(4tBu) E N-Me-K NH2)2 DIG, disulfide Pen-Pen; also: homodimer, two subunits joined by DIG linker) [SEQ ID NO: 133]	≥ 8.00
Ac-[Pen][NMeR]SDTL[Pen][Phe(4-tBu)][β3hE][dK]-NH2 (disulfide 1-7; not fully specified (residue 10); printed as (Ac Pen N-Me-R S D T L Pen F(4-Bu) b-H-E k NH2)2 IDA Alexa-647, disulfide Pen-Pen; also: homodimer: two subunits joined by IDA linker, Alexa-647 label on the linker, F(4-Bu) as printed) [SEQ ID NO: 183]	≥ 8.00
Ac-[Pen][NMeR]SDTL[Pen][Phe(4-COOH)]E[NMeK]-NH2 (disulfide 1-7; not fully specified (residue 10); printed as (Ac Pen N-Me-R S D T L Pen F(4-COOH) E N-Me-K NH2)2 DIG, disulfide Pen-Pen; also: homodimer (…)2 DIG via Lys10 NZ) [SEQ ID NO: 147]	≥ 8.00
Ac-[Pen][NMeR]SDTLC[Tic][dE][dK]-NH2 (disulfide 1-7; SMILES CC(=O)N[C@@H]1C(=O)N(C)[C@@H](CCCNC(=N)N)C(=O)N[C@@H](CO)C(=O)N[C@@H](CC(=O)O)C(=O)N[C@@H]([C@@H](C)O)C(=O)N[C@@H](CC(C)C)C(=O)N[C@H](C(=O)N2Cc3ccccc3C[C@H]2C(=O)N[C@H](CCC(=O)O)C(=O)N[C@H](CCCCN)C(N)=O)CSSC1(C)C) [SEQ ID NO: 89]	< 7.60
